test system: CEM cells HIV-1 protection, formazan growth assay; assay: NCI AIDS Antiviral Assay; details: measured here: growth of uninfected CEM cells
experimental_readout: IC50

>>> df
                                    compound                         target_under_test  experimental_readout  experimental_result
 0              CCCCCCCCCCCc1noc2c1C(=O)CCC2  CEM cells HIV-1 protection, formazan growth assay                  IC50            > 24.5 µM
 1               Nc1ncnc2c1ncn2C(Cl)=C(Cl)Cl  CEM cells HIV-1 protection, formazan growth assay                  IC50               115 µM
 2  CC1SC(c2ccccc2)N(Nc2c3ccccc3nc3ccccc23)C1=O (stereo not drawn)  CEM cells HIV-1 protection, formazan growth assay                  IC50            > 67.6 µM
 3  CNC(=O)O/N=C1\N(C)CN(c2ccccc2)C12CCN(CCCC(=O)c1ccc(F)cc1)CC2  CEM cells HIV-1 protection, formazan growth assay                  IC50               105 µM
 4     O=c1oc2cccnc2n1CCCCN1CCN(c2ccccc2)CC1  CEM cells HIV-1 protection, formazan growth assay                  IC50               126 µM
 5  O=C(c1ccccc1)C(c1ccccc1)C1(O)C(=O)Nc2c(Cl)ccc(Cl)c21 (stereo not drawn)  CEM cells HIV-1 protection, formazan growth assay                  IC50            > 17.4 µM
 6  NC(CSCCSCCSCC(N)C(=O)O)C(=O)O (stereo not drawn)  CEM cells HIV-1 protection, formazan growth assay                  IC50            > 56.2 µM
 7  CC(NCCNC(C)c1cccnc1)c1cccnc1 (stereo not drawn)  CEM cells HIV-1 protection, formazan growth assay                  IC50             > 200 µM
 8        O=C(Cn1ccnc1[N+](=O)[O-])N(CCO)CCO  CEM cells HIV-1 protection, formazan growth assay                  IC50             > 977 µM
 9  CCOC(=O)C1CCCC1S(=O)(=O)c1ccc(C)cc1 (stereo not drawn)  CEM cells HIV-1 protection, formazan growth assay                  IC50             > 200 µM
10  [N-]=[N+]=Nc1c([N+](=O)[O-])c(Cl)nc2ccccc12  CEM cells HIV-1 protection, formazan growth assay                  IC50                10 µM
11  NC1(CSS(=O)(=O)O)CCN1 (stereo not drawn)  CEM cells HIV-1 protection, formazan growth assay                  IC50             > 200 µM
12  CCOC(=O)C1C(=O)CC(C)(O)C(C(=O)OCC)C1c1ccc(N(C)C)cc1 (stereo not drawn)  CEM cells HIV-1 protection, formazan growth assay                  IC50             > 200 µM
